experimental-conditions: in methanol, 299.15 K
assay-endpoint: solubility (mole fraction)

test-smiles | readout-value
O=C(O)CCCC(=O)O | 0.256

---

experimental-conditions: in cyclohexanone, 311.85 K

test-smiles | solubility (mole fraction)
O=C(O)CCCC(=O)O | 0.251

---

experimental-conditions: in methanol, 302.85 K

test-smiles | solubility (mole fraction)
O=C(O)CCCC(=O)O | 0.274

---

experimental-conditions: in methanol, 295.55 K

test-smiles | solubility (mole fraction)
O=C(O)CCCC(=O)O | 0.239

---

experimental-conditions: in methanol, 310.15 K

test-smiles | solubility (mole fraction)
O=C(O)CCCC(=O)O | 0.316

---

experimental-conditions: in cyclohexanone, 299.35 K

test-smiles | solubility (mole fraction)
O=C(O)CCCC(=O)O | 0.184

---

experimental-conditions: in methanol, 328.95 K

test-smiles | solubility (mole fraction)
O=C(O)CCCC(=O)O | 0.472

---

experimental-conditions: in methanol, 313.45 K
assay-endpoint: solubility (mole fraction)

test-smiles | readout-value
O=C(O)CCCC(=O)O | 0.34

---

experimental-conditions: in methanol, 324.85 K

test-smiles | solubility (mole fraction)
O=C(O)CCCC(=O)O | 0.436

---

experimental-conditions: in methanol, 287.05 K

test-smiles | solubility (mole fraction)
O=C(O)CCCC(=O)O | 0.204

---

experimental-conditions: in cyclohexanone, 307.75 K

test-smiles | solubility (mole fraction)
O=C(O)CCCC(=O)O | 0.228
